System: SK-OV-3 ovarian
Test: NCI-60 one-dose screen, 48 h (100 = growth as untreated, 0 = no growth, -100 = all killed)
Conditions: 10 µM unless noted
The panel holds about 83,000 compounds, 20% with a hit somewhere; the sample as a whole holds those more often.
Please assign FALSE whenever growth is at or above 90%, and TRUE whenever it is below.

STRUCTURE SMILES: COc1ccc(/C=N/NC(=O)CSc2nc(-c3cnccn3)cc(-c3cccs3)c2C#N)cc1
CATEGORY LABEL: TRUE
//
STRUCTURE SMILES: Cc1ccc(-c2nc(SCC(=O)c3ccccc3)nc(Nc3ccc(S(N)(=O)=O)cc3)c2C#N)cc1
CATEGORY LABEL: FALSE
//
STRUCTURE SMILES: Cc1[nH]c(C(=O)Nc2ccc(S(=O)(=O)N3CCCCC3)cc2OCCOCCOCCOCCOCCOCCOCCOCCOCCOc2cc(S(=O)(=O)N3CCCCC3)ccc2NC(=O)c2[nH]c(C)c3c2CCCCC3=O)c2c1C(=O)CCCC2
CATEGORY LABEL: TRUE

## Input Please check: growth for `C#CCOc1ccccc1/C=N/Nc1nc(-c2ccc(Cl)cc2)cs1` , strictly under 90% or not?
## Output FALSE

## Input Please check: growth for `CCOc1cccc(/C(N)=N/C(N)=N/c2nc3ccccc3s2)c1` , strictly under 90% or not?
## Output FALSE

## Input Please check: growth for `NC1=NC2(CCCC2)N(c2ccc(S(=O)(=O)Nc3nccs3)cc2)C(N)=N1` , strictly under 90% or not?
## Output FALSE

## Input Please check: growth for `O=C(CSc1nc2ccccc2c(=O)n1CCc1ccccc1)Nc1ccc(S(=O)(=O)Nc2ccc(Cl)nn2)cc1` , strictly under 90% or not?
## Output FALSE

## Input Please check: growth for `O=C(CSc1nnc(-c2cccs2)n1-c1ccccc1)Nc1ccccc1F` , strictly under 90% or not?
## Output FALSE

## Input Please check: growth for `CC(=O)OC[C@@]12Oc3c(cccc3-c3ccc(O)c4c3O[C@]3(COC(C)=O)C(=C4O)C(=O)C[C@H](C)[C@@H]3OC(C)=O)C(O)=C1C(=O)C[C@H](C)[C@@H]2OC(C)=O` , strictly under 90% or not?
## Output TRUE

* * *

Tested on: K-562 leukemia
Experiment: NCI-60 one-dose screen, 48 h
Details: 10 µM unless noted
The panel holds about 83,000 compounds, 20% with a hit somewhere; the sample as a whole holds those more often. The source made the active and inactive calls. How the source made its calls: active means growth percent below 10; inactive means the rest.
Lab note: assign the record to one of 1 (yes) = active, 0 (no) = inactive

A selection of reference data follows.
STRUCTURE SMILES: C#Cc1nc(/C=C/CCCCCCC(=O)NO)cs1
CATEGORY LABEL: 0 (no)
//
STRUCTURE SMILES: Cn1ncc2c(C(=O)c3ccc(F)cc3)nc(C(C)(C)C)nc21
CATEGORY LABEL: 0 (no)
//
STRUCTURE SMILES: O=S(=O)(NCCCNc1nccc(-c2[nH]c(-c3ccccc3)nc2-c2ccc(F)c(O)c2)n1)c1cccc(F)c1
CATEGORY LABEL: 0 (no)
//
STRUCTURE SMILES: O=C(/C=C/c1ccc(F)cc1)Nc1cccc2cccnc12
CATEGORY LABEL: 0 (no)
//
STRUCTURE SMILES: CCn1c2ccc(/C=N/N(C)S(=O)(=O)CCN(C)C)cc2c2cc(/C=N/N(C)S(=O)(=O)CCN(C)C)ccc21
CATEGORY LABEL: 1 (yes)
//
STRUCTURE SMILES: Brc1cccc(-c2cc(-c3ccc4c(c3)OC=CO4)[nH]n2)c1
CATEGORY LABEL: 0 (no)
//
STRUCTURE SMILES: Cc1ccccc1Nc1nc(SC(C)C)nc(-c2ccccc2)c1C#N
CATEGORY LABEL: 0 (no)
//
STRUCTURE SMILES: CCOC(=O)c1c(NCC(=O)Nc2cccc([N+](=O)[O-])c2)sc(C(C)=O)c1C
CATEGORY LABEL: 1 (yes)
//
STRUCTURE SMILES: O=C1[C@@H]2Cc3c([nH]c4ccccc34)[C@@H](c3ccc(Cl)cc3)N2C(=O)CN1C1CCN(Cc2ccccc2)CC1
CATEGORY LABEL: 1 (yes)
//
STRUCTURE SMILES: CNc1sc(S(=O)(=O)NC)nc1S(=O)(=O)c1ccc(C)cc1
CATEGORY LABEL: 0 (no)

## Input So what was the verdict on `O=C(/C=C/c1cccc(Br)c1)c1cccc(OCCCCOc2cccc(C(=O)/C=C/c3cccc(Br)c3)c2)c1` in this test?
## Output 0 (no)

## Input So what was the verdict on `Cn1ncc2ncc(-c3ccc4ncc(C#N)c(N5CCc6cc(F)c(Cl)cc65)c4c3)cc21` in this test?
## Output 0 (no)

## Input So what was the verdict on `O=c1c2cc(-c3ccc(F)cc3F)ccc2n(Nc2ccccc2)c(=O)n1-c1cccc(C(F)(F)F)c1` in this test?
## Output 1 (yes)

## Input So what was the verdict on `Cc1cc(NS(=O)(=O)c2ccc(NC(=O)CSc3nc4ccccc4c(=O)n3-c3ccccc3)cc2)no1` in this test?
## Output 0 (no)

## Input So what was the verdict on `Clc1ccc2c(N/N=C/c3c[nH]c4ccccc34)ccnc2c1` in this test?
## Output 1 (yes)

## Input So what was the verdict on `C=C(C)[C@@H]1CC[C@]2(COCCCNCCCN)CC[C@]3(C)[C@H](CC[C@@H]4[C@@]5(C)CC[C@H](O)C(C)(C)[C@@H]5CC[C@]43C)[C@@H]12` in this test?
## Output 1 (yes)

## Input So what was the verdict on `CN1CCN(Cc2ccc(NC(=O)c3cncc(C#Cc4cnc5ccc(O[C@@H]6CCOC6)nn45)c3)cc2C(F)(F)F)CC1` in this test?
## Output 1 (yes)

* * *

Exercise: for every item that follows, state its recorded growth.
System: LOX IMVI melanoma
Experiment: NCI-60 one-dose screen, 48 h (100 = growth as untreated, 0 = no growth, -100 = all killed)
Conditions: 10 µM unless noted
About 83,000 compounds went through this panel and 20% of them were active in at least one assay; those are over-represented in the sample as a whole. The source made the active and inactive calls. Rule for the calls: active = growth percent below 10; inactive = the rest.

COMPOUND: Cc1[nH]c(C(=O)Nc2ccc(C(=O)NCC3CCNCC3)cc2OC(C)C)c(Cl)c1Cl
SYSTEM UNDER TEST: LOX IMVI melanoma
growth: 9.32% (active)
//
COMPOUND: Cc1[nH]c(C(=O)Nc2ccc(C(N)=O)cc2N2CCOC(C)C2)c(Cl)c1Cl (configuration not stated)
SYSTEM UNDER TEST: LOX IMVI melanoma
growth: 94% (inactive)
//
COMPOUND: CCC1=Cc2c(OC)cccc2OC12C=Cc1c(OC)cccc1O2 (configuration not stated)
SYSTEM UNDER TEST: LOX IMVI melanoma
growth: 28.4% (inactive)
//
COMPOUND: CCCCc1nc2c(N)nc3ccccc3c2n1Cc1ccc(OC)cc1
SYSTEM UNDER TEST: LOX IMVI melanoma
growth: 75% (inactive)

Working through the 8 compounds below one at a time, give growth for each.
1. C/C(=C(/C)C1CC1CCNC1CCC(NC(=O)OC(C)(C)C)CC1)c1ccccc1 (configuration not stated)
2. Fc1cccc(Cl)c1/C=N/Nc1nc(N/N=C/c2c(F)cccc2Cl)nc(N2CCCCC2)n1
3. Cc1ccc(C(=O)CSc2nc3ccccc3c(=O)n2C)cc1
4. C#CCOc1ccc(-c2csc(NC(=O)C=C)n2)cc1NS(=O)(=O)c1cccc2c(N(C)C)cccc12
5. CCNC(=O)Oc1ccc(/C(=C(/C)c2ccc(Cl)cc2)c2ccc(OCCN3CCCCCC3)cc2)cc1
6. C#CCOc1ccccc1/C=N/Nc1nc(-c2ccc(Cl)cc2)cs1
7. CC(=O)OC[C@@]12Oc3c(cccc3-c3ccc(O)c4c3O[C@]3(COC(C)=O)C(=C4O)C(=O)C[C@H](C)[C@@H]3OC(C)=O)C(O)=C1C(=O)C[C@H](C)[C@@H]2OC(C)=O
8. O=C(N/N=C/c1cc2ccccc2nc1Cl)c1cc(-c2nc3ccccc3[nH]2)nc2ccccc12

## Output
1: 10.2% (inactive); 2: 19.6% (inactive); 3: 93% (inactive); 4: -91% (active); 5: -87.8% (active); 6: 95.1% (inactive); 7: -66.1% (active); 8: 88.9% (inactive)

* * *

Test system: SR leukemia
Assay: NCI-60 one-dose screen, 48 h (100 = growth as untreated, 0 = no growth, -100 = all killed)
Details: 10 µM unless noted
Procedure: Growth inhibition of the SR human tumor cell line is measured as a screen for anti-cancer activity. Cells are grown in 96 well plates and exposed to the test compound for 48 hours. Compounds are tested at a single concentration, which is 10^-5 M for most compounds. The reported endpoint is percent growth (GI% or GIPRCNT), where numbers from 0 - 100% represent growth inhibition, and numbers from -100% - 0 represent cell death. For example, a value of 40 represents 60% growth inhibition. […]
About 83,000 compounds went through this panel and 20% of them were active in at least one assay; those are over-represented in the sample as a whole.
Exercise: for every item that follows, state its recorded growth.
Numbers only, in %.

Illustrative cases are given below, each with its answer.
STRUCTURE SMILES: CN1CCN(Cc2ccc(NC(=O)c3cncc(C#Cc4cnc5ccc(O[C@@H]6CCOC6)nn45)c3)cc2C(F)(F)F)CC1
SYSTEM UNDER TEST: SR leukemia
PROPERTY LABEL: growth
VAL: -29.7
--
STRUCTURE SMILES: CCCCCCNC(=O)Oc1ccc(/C(=C(/C)c2ccc(Cl)cc2)c2ccc(OCCN3CCCCCC3)cc2)cc1
SYSTEM UNDER TEST: SR leukemia
PROPERTY LABEL: growth
VAL: 2.59
--
STRUCTURE SMILES: Cc1ccc([C@H]2c3[nH]c4ccccc4c3C[C@H]3C(=O)N(CCCCCCC(=O)NO)CC(=O)N23)s1
SYSTEM UNDER TEST: SR leukemia
PROPERTY LABEL: growth
VAL: 23
--
STRUCTURE SMILES: CC[C@H](CC[C@@H](C)[C@H]1CC[C@H]2[C@@H]3CC(=O)C4=CC(=O)/C(=C/c5ccc([N+](=O)[O-])cc5)C[C@]4(C)[C@H]3CC[C@]12C)C(C)C
SYSTEM UNDER TEST: SR leukemia
PROPERTY LABEL: growth
VAL: 84.3
--
STRUCTURE SMILES: COc1ccc([C@H]2C(=O)N(c3cc(OC)c(OC)c(OC)c3)[C@@H]2c2ccc(OC)c(O)c2)cc1
SYSTEM UNDER TEST: SR leukemia
PROPERTY LABEL: growth
VAL: 11.4

Working through the 4 compounds below one at a time, give growth for each.
1. CN1CCN(Cc2ccc(NC(=O)c3cncc(C#Cc4cnc(N)nc4)c3)cc2C(F)(F)F)CC1
2. Cc1ccc(NC(=O)/C=C/c2ccc(OCCCOc3ccc4c(C)cc(=O)oc4c3)cc2)cc1
3. COc1cc(OC)cc(-c2cc(-c3c[nH]c4ccccc34)nc(-c3c[nH]c4ccccc34)c2C#N)c1
4. CCCCCc1ccc(S(=O)(=O)Nc2cc(-c3csc(N)n3)ccc2OC)cc1

## Output
1: 16.3; 2: 70.2; 3: 81.3; 4: 98.9

Working through the 4 compounds below one at a time, give growth for each.
1. Cc1ccccc1Nc1nc(SC(C)C)nc(-c2ccccc2)c1C#N
2. CCOC(=O)c1ccc(NC2=C(Cl)C(=O)c3nc(C)ccc3C2=O)cc1
3. Brc1ccc2[nH]cc(-c3nn4cc(-c5nccs5)nc4s3)c2c1
4. CCN(CC)S(=O)(=O)c1ccc(-c2nc(C(Cl)Cl)nc3cc(C)nn23)cc1

## Output
89.6
22.6
45.2
9.52

Where do these numbers come from? They come from PubChem BioAssay (NCI).
